Test system: T. cruzi intracellular amastigotes
measurement notes: Drug test on intracellular amastigotes of T. cruzi
Format: cell-based, Trypanosoma cruzi
condition set: Trypanosoma cruzi, Vero, 72 h, read-out: IC50 T. cruzi amastigotes
measurement kind: IC50

# count of solved cases: 2
smiles: O=C(O)c1nn(Cc2ccc(Cl)cc2Cl)c2ccccc12
IC50: 0.0824 mM
//
smiles: O=C(O)C(Cl)Cl
IC50: 25.8 mM

Entry CN(C)C(=N)N=C(N)N ; IC50 = 18.5 mM
